Kindly state MIC for each of the entries shown.
# Test system: Escherichia coli
# assayExplanation: Minimum inhibitory concentration against Escherichia coli
# Assay type: functional
Answers are plain numbers, in µg/mL.

Use the examples below as a reference point.
[
  {
    "givenSmiles": "CC[C@H]1OC(=O)[C@H](C)[C@@H](O[C@H]2C[C@@](C)(OC)[C@@](O)(c3ccccc3)[C@H](C)O2)[C@H](C)[C@@H](O[C@@H]2O[C@H](C)C[C@H](N(C)C)[C@H]2O)[C@](C)(O)C[C@@H](C)CN[C@H](C)[C@@H](O)[C@]1(C)O",
    "attributeMeasured": "MIC",
    "recordedMeasurement": 12.5
  },
  {
    "givenSmiles": "CC[C@H]1OC(=O)[C@H](C)[C@@H](O[C@H]2C[C@@](C)(OC)[C@@](O)(c3nccn3C)[C@H](C)O2)[C@H](C)[C@@H](O[C@@H]2O[C@H](C)C[C@H](N(C)C)[C@H]2O)[C@](C)(O)C[C@@H](C)CN(C)[C@H](C)[C@@H](O)[C@]1(C)O",
    "attributeMeasured": "MIC",
    "recordedMeasurement": 0.39
  },
  {
    "givenSmiles": "CC[C@H]1OC(=O)[C@H](C)[C@@H](O[C@H]2C[C@@](C)(OC)[C@@](O)(c3cc4ccccc4n3C)[C@H](C)O2)[C@H](C)[C@@H](O[C@@H]2O[C@H](C)C[C@H](N(C)C)[C@H]2O)[C@](C)(O)C[C@@H](C)CN[C@H](C)[C@@H](O)[C@]1(C)O",
    "attributeMeasured": "MIC",
    "recordedMeasurement": 3.13
  },
  {
    "givenSmiles": "CC[C@H]1OC(=O)[C@H](C)[C@@H](O[C@H]2C[C@@](C)(OC)[C@@](O)(c3cccs3)[C@H](C)O2)[C@H](C)[C@@H](O[C@@H]2O[C@H](C)C[C@H](N(C)C)[C@H]2O)[C@](C)(O)C[C@@H](C)CN[C@H](C)[C@@H](O)[C@]1(C)O",
    "attributeMeasured": "MIC",
    "recordedMeasurement": 3.13
  },
  {
    "givenSmiles": "CC[C@H]1OC(=O)[C@H](C)[C@@H](O[C@H]2C[C@@](C)(OC)[C@@](O)(C#CCOC)[C@H](C)O2)[C@H](C)[C@@H](O[C@@H]2O[C@H](C)C[C@H](N(C)C)[C@H]2O)[C@](C)(O)C[C@@H](C)CN(C)[C@H](C)[C@@H](O)[C@]1(C)O",
    "attributeMeasured": "MIC",
    "recordedMeasurement": 0.39
  }
]

Hi there! I need MIC for each item below, if you can.
1. CC[C@H]1OC(=O)[C@H](C)[C@@H](O[C@H]2C[C@@](C)(OC)[C@](C)(O)[C@H](C)O2)[C@H](C)[C@@H](O[C@@H]2O[C@H](C)C[C@H](N(C)C)[C@H]2O)[C@](C)(O)C[C@@H](C)CN(C)[C@H](C)[C@@H](O)[C@]1(C)O
2. C=CC[C@@]1(O)[C@H](C)O[C@@H](O[C@H]2[C@H](C)[C@@H](O[C@@H]3O[C@H](C)C[C@H](N(C)C)[C@H]3O)[C@](C)(O)C[C@@H](C)CN[C@H](C)[C@@H](O)[C@](C)(O)[C@@H](CC)OC(=O)[C@@H]2C)C[C@@]1(C)OC

0.78
0.78

Suppose we examine the compound CC[C@H]1OC(=O)[C@H](C)[C@@H](O[C@H]2C[C@@](C)(OC)[C@@](O)(c3cccnc3)[C@H](C)O2)[C@H](C)[C@@H](O[C@@H]2O[C@H](C)C[C@H](N(C)C)[C@H]2O)[C@](C)(O)C[C@@H](C)CN[C@H](C)[C@@H](O)[C@]1(C)O ; what MIC value has been reported?
3.13

====

Kindly state MIC for each of the entries shown.
# Tested on: Pasteurella multocida
# assayExplanation: Minimum inhibitory concentration against Pasteurella multocida
# Assay type: functional
Give bare numbers, in µg/mL.

[
  {
    "givenSmiles": "CC[C@H]1OC(=O)[C@H](C)[C@@H](O[C@H]2C[C@@](C)(OC)[C@@](O)(CC)[C@H](C)O2)[C@H](C)[C@@H](O[C@@H]2O[C@H](C)C[C@H](N(C)C)[C@H]2O)[C@](C)(O)C[C@@H](C)CN[C@H](C)[C@@H](O)[C@]1(C)O",
    "MIC, µg/mL": 0.2
  }
]

Hi there! I need MIC for each item below, if you can.
1. CC[C@H]1OC(=O)[C@H](C)[C@@H](O[C@H]2C[C@@](C)(OC)[C@@](O)(C#CCOC)[C@H](C)O2)[C@H](C)[C@@H](O[C@@H]2O[C@H](C)C[C@H](N(C)C)[C@H]2O)[C@](C)(O)C[C@@H](C)CN(C)[C@H](C)[C@@H](O)[C@]1(C)O
2. CC[C@H]1OC(=O)[C@H](C)[C@@H](O[C@H]2C[C@@](C)(OC)[C@@](O)(c3ccccc3)[C@H](C)O2)[C@H](C)[C@@H](O[C@@H]2O[C@H](C)C[C@H](N(C)C)[C@H]2O)[C@](C)(O)C[C@@H](C)CN[C@H](C)[C@@H](O)[C@]1(C)O
3. CC[C@H]1OC(=O)[C@H](C)[C@@H](O[C@H]2C[C@@](C)(OC)[C@@](O)(CCCOC)[C@H](C)O2)[C@H](C)[C@@H](O[C@@H]2O[C@H](C)C[C@H](N(C)C)[C@H]2O)[C@](C)(O)C[C@@H](C)CN[C@H](C)[C@@H](O)[C@]1(C)O
4. CC#C[C@@]1(O)[C@H](C)O[C@@H](O[C@H]2[C@H](C)[C@@H](O[C@@H]3O[C@H](C)C[C@H](N(C)C)[C@H]3O)[C@](C)(O)C[C@@H](C)CN(C)[C@H](C)[C@@H](O)[C@](C)(O)[C@@H](CC)OC(=O)[C@@H]2C)C[C@@]1(C)OC
5. CC[C@H]1OC(=O)[C@H](C)[C@@H](O[C@H]2C[C@@](C)(OC)[C@@](O)(C#CCOC)[C@H](C)O2)[C@H](C)[C@@H](O[C@@H]2O[C@H](C)C[C@H](N(C)C)[C@H]2O)[C@](C)(O)C[C@@H](C)CN[C@H](C)[C@@H](O)[C@]1(C)O
6. CC[C@H]1OC(=O)[C@H](C)[C@@H](O[C@H]2C[C@@](C)(OC)[C@@](O)(C#CCN(C)C)[C@H](C)O2)[C@H](C)[C@@H](O[C@@H]2O[C@H](C)C[C@H](N(C)C)[C@H]2O)[C@](C)(O)C[C@@H](C)CN(C)[C@H](C)[C@@H](O)[C@]1(C)O

1: 0.05; 2: 3.13; 3: 0.2; 4: 0.2; 5: 0.2; 6: 0.1

====

# Tested on: Escherichia coli
# assayExplanation: Minimum inhibitory concentration against Escherichia coli
# Format: functional
attributeMeasured: MIC

Hi there! I need MIC for each item below, if you can.
1. CC[C@H]1OC(=O)[C@H](C)[C@@H](O[C@H]2C[C@@](C)(OC)[C@@](O)(C#CCN(C)C)[C@H](C)O2)[C@H](C)[C@@H](O[C@@H]2O[C@H](C)C[C@H](N(C)C)[C@H]2O)[C@](C)(O)C[C@@H](C)CN[C@H](C)[C@@H](O)[C@]1(C)O
2. CC[C@H]1OC(=O)[C@H](C)[C@@H](O[C@H]2C[C@@](C)(OC)[C@@](O)(c3cc4ccccc4n3C)[C@H](C)O2)[C@H](C)[C@@H](O[C@@H]2O[C@H](C)C[C@H](N(C)C)[C@H]2O)[C@](C)(O)C[C@@H](C)CN(C)[C@H](C)[C@@H](O)[C@]1(C)O
3. CC[C@H]1OC(=O)[C@H](C)[C@@H](O[C@H]2C[C@@](C)(OC)[C@@](O)(CCCOC)[C@H](C)O2)[C@H](C)[C@@H](O[C@@H]2O[C@H](C)C[C@H](N(C)C)[C@H]2O)[C@](C)(O)C[C@@H](C)CN(C)[C@H](C)[C@@H](O)[C@]1(C)O
4. CC[C@H]1OC(=O)[C@H](C)[C@@H](O[C@H]2C[C@@](C)(OC)[C@@](O)(C#CCOC)[C@H](C)O2)[C@H](C)[C@@H](O[C@@H]2O[C@H](C)C[C@H](N(C)C)[C@H]2O)[C@](C)(O)C[C@@H](C)CN[C@H](C)[C@@H](O)[C@]1(C)O
5. CC[C@H]1OC(=O)[C@H](C)[C@@H](O[C@H]2C[C@@](C)(OC)[C@@](O)(c3ccccn3)[C@H](C)O2)[C@H](C)[C@@H](O[C@@H]2O[C@H](C)C[C@H](N(C)C)[C@H]2O)[C@](C)(O)C[C@@H](C)CN[C@H](C)[C@@H](O)[C@]1(C)O
6. CC#C[C@@]1(O)[C@H](C)O[C@@H](O[C@H]2[C@H](C)[C@@H](O[C@@H]3O[C@H](C)C[C@H](N(C)C)[C@H]3O)[C@](C)(O)C[C@@H](C)CN(C)[C@H](C)[C@@H](O)[C@](C)(O)[C@@H](CC)OC(=O)[C@@H]2C)C[C@@]1(C)OC

1: 1.56 µg/mL; 2: 6.25 µg/mL; 3: 1.56 µg/mL; 4: 3.13 µg/mL; 5: 3.13 µg/mL; 6: 1.56 µg/mL

Hi there! I need MIC for each item below, if you can.
1. C#C[C@@]1(O)[C@H](C)O[C@@H](O[C@H]2[C@H](C)[C@@H](O[C@@H]3O[C@H](C)C[C@H](N(C)C)[C@H]3O)[C@](C)(O)C[C@@H](C)CN(C)[C@H](C)[C@@H](O)[C@](C)(O)[C@@H](CC)OC(=O)[C@@H]2C)C[C@@]1(C)OC
2. CC[C@H]1OC(=O)[C@H](C)[C@@H](O[C@H]2C[C@@](C)(OC)[C@@](O)(CSC)[C@H](C)O2)[C@H](C)[C@@H](O[C@@H]2O[C@H](C)C[C@H](N(C)C)[C@H]2O)[C@](C)(O)C[C@@H](C)CN[C@H](C)[C@@H](O)[C@]1(C)O

["0.78 µg/mL", "3.13 µg/mL"]
